From: ChEMBL document CHEMBL1122711

Details: human, 20000 µM
Description: Solubility ratio ([HbS+drug (20 mM)]/[HbS-drug]
# Solubility ratio listing for each entry below

# compound, Solubility ratio
records = [
    ("Cc1cc(Br)c(OCC(=O)O)c(Br)c1", 1.139),
    ("C=CCc1ccc(OCC(=O)O)c(OC)c1", 1.141),
    ("O=C(O)COCc1ccc(Oc2ccccc2)cc1", 1.165),
    ("O=C(O)C(CCc1ccccc1)C(=O)O", 1.101),
    ("COc1cc(Cl)ccc1COCC(=O)O", 1.233),
    ("O=C(O)COCc1ccc(Br)cc1", 1.233),
    ("O=C(O)COc1c(Br)cc(Br)cc1Br", 1.145),
    ("O=C(O)COc1ccc(Cl)cc1", 1.163),
    ("CC(C)(Oc1ccc(Cl)cc1)C(=O)Oc1ccccc1C(=O)O", 1.153),
    ("Cc1cc(OCC(=O)O)cc(C)c1Cl", 1.124),
    ("O=C(O)COc1ccc(Cl)cc1Cl", 1.151),
    ("O=C(O)C(CCOc1ccc(Br)cc1)C(=O)O", 1.323),
    ("Cc1ccc(OCC(=O)O)cc1C", 1.118),
    ("N[C@@H](Cc1ccccc1)C(=O)O", 1.093),
    ("O=C(O)COCc1ccc(Cl)cc1", 1.206),
    ("CC(C)(Oc1ccc(Cl)cc1)C(=O)O", 1.155),
    ("O=C(O)CSc1ccc(Br)cc1", 1.113),
    ("O=C(O)COCc1cc(Cl)cc(Cl)c1", 1.33),
    ("O=C(O)COc1ccc2c(c1)CCC2", 1.247),
    ("Nc1ccc(OCC(=O)O)cc1", 1.113),
    ("Cc1ccc(COCC(=O)O)c(C)c1", 1.163),
    ("CC(C)(C)c1ccc(OCC(=O)O)cc1", 1.058),
    ("Nc1ccc(CSCC(=O)O)cc1", 1.076),
    ("COc1cc(COCC(=O)O)ccc1C", 1.145),
    ("Cc1ccc(COCC(=O)O)cc1C", 1.142),
    ("Cc1cc(C)c(C)c(OCC(=O)O)c1", 1.18),
    ("O=C(O)COc1ccc(I)cc1", 1.09),
    ("O=C(O)COc1ccc(Cl)c(Cl)c1", 1.234),
    ("CC(C)(Oc1ccc(CCNC(=O)c2ccc(Cl)cc2)cc1)C(=O)O [BEZAFIBRATE]", 0.981),
    ("O=C(O)CSCc1ccc(Br)cc1", 1.131),
]

----------
Conditions: human, 40000 µM
Description: Solubility ratio ([HbS+drug (40 mM)]/[HbS-drug])

# compound, Solubility ratio
rows = [
    ("Cc1ccc(COCC(=O)O)c(C)c1", 1.325),
    ("Cc1cc(C)c(COCC(=O)O)c(C)c1", 1.31),
    ("O=C(O)COc1ccc(Cl)cc1Cl [2,4-DICHLOROPHENOXYACETIC ACID]", 1.313),
    ("O=C(O)COCc1ccc(Br)cc1", 1.398),
    ("Cc1cc(C)cc(OCC(=O)O)c1", 1.31),
    ("O=C(O)COC(c1ccccc1)c1ccc(Cl)cc1 (centres undefined)", 1.25),
    ("CC(C)(OCc1ccc(Br)cc1)C(=O)O", 1.379),
    ("COc1cc(COCC(=O)O)ccc1C", 1.248),
    ("O=C(O)CSc1cc(Cl)c(Cl)cc1Cl", 1.12),
    ("O=C(O)COc1ccc2c(c1)CCC2", 1.322),
    ("O=C(O)COc1ccc(I)cc1", 1.176),
    ("C=CCc1ccc(OCC(=O)O)c(OC)c1", 1.245),
    ("O=C(O)COc1c(Br)cc(Br)cc1Br", 1.248),
    ("O=C(O)CCOCc1ccc(Cl)c(Cl)c1", 1.395),
    ("O=C(O)COc1ccc(Br)cc1", 1.317),
    ("Nc1ccc(OCC(=O)O)cc1", 1.145),
    ("Cc1cc(Br)c(OCC(=O)O)c(Br)c1", 1.284),
    ("Cc1ccc(COCC(=O)O)cc1", 1.304),
    ("CN(C)c1ccc(OCC(=O)O)cc1.Cl", 1.057),
    ("O=C(O)CSc1ccc(Br)cc1", 1.261),
    ("Cc1cc(C)c(C)c(OCC(=O)O)c1", 1.351),
    ("COc1cccc(OCC(=O)O)c1OC", 1.144),
    ("O=C(O)COc1ccc([N+](=O)[O-])cc1", 1.344),
    ("N[C@@H](Cc1ccccc1)C(=O)O [PHENYLALANINE]", 1.178),
    ("O=C(O)C(CCOc1ccc(Br)cc1)C(=O)O", 1.36),
    ("O=C(O)CSCc1ccc(Br)cc1", 1.307),
    ("Cc1cc(OCC(=O)O)ccc1Cl", 1.275),
    ("CC(C)(Oc1ccc(CCNC(=O)c2ccc(Cl)cc2)cc1)C(=O)O [BEZAFIBRATE]", 1.198),
    ("Cc1cc(OCC(=O)O)cc(C)c1Cl", 1.216),
]
